- System: HCV replicon
- protocol_text: microbe, parasite or virus in culture
- Type: cell-based
- details: Replicon IC50 values are determined by firefly luciferase signal; bicistronic replicon, 2 days; read-out: Replicon IC5Os
assay_metric: IC50

Given the entry CCn1c(-c2ccc(NC(=O)Oc3ccc(Cl)cc3)cc2)c(C#N)c2ccc(OC)cc21 [Compound 318] , report its measured IC50.
> 2 µM

Try the molecule CCn1c(C#Cc2cccc(NS(C)(=O)=O)c2)c(C#N)c2ccc(OC)cc21 [Compound 208]
0.5 to 2 µM

Try the molecule COc1ccc2c(C#N)c(-c3ccc(N(C)S(C)(=O)=O)cc3)n(C(C)C)c2c1 [Compound 696]
0.5 to 2 µM

Try the molecule CCCOC(=O)Nc1cccc(-c2c(C#N)c3ccc(OC(F)F)cc3n2CC2CC2)c1 [Compound 746]
> 2 µM

Try the molecule CCn1c(-c2cc3ccccc3s2)c(C#N)c2ccc(OC)cc21 [Compound 286]
0.5 to 2 µM

Try the molecule COc1ccc(-n2cc(C#N)c3ccc(OC)cc32)cc1 [Compound 4]
> 2 µM

Try the molecule CCn1c(C#Cc2cccc(Cl)c2)c(C#N)c2ccc(OC)cc21 [Compound 146]
0.5 to 2 µM

Try the molecule CCn1c(-c2ccc(S(=O)(=O)NC)cc2)c(C#N)c2cc(F)ccc21 [Compound 438]
> 2 µM

Try the molecule CCn1c(-c2ccc(N(C)S(=O)(=O)CC)cc2)c(C#N)c2ccc(OC)cc21 [Compound 181]
0.5 to 2 µM

Try the molecule CCn1c(-c2ccc(NC(=O)OC3C[C@H](C)CC[C@H]3C(C)C)cc2)c(C#N)c2ccc(OC)cc21 (stereo partly shown) [Compound 316]
> 2 µM
